# System: QhTERT cells that express FGFR2c
# PROCEDURE DETAILS: Apparent dissociation constant by flow cytometry
# Format: binding, human
# ASSAY CONTEXT: 0 to 200 nM in PBS in 25 nM increments, 4°C, 1 hour; mean fluorescence intensity by flow cytometry; non-linear fit R^2 = 0.96; representative of 3 independent experiments
ATTRIBUTE MEASURED: Kd (nM)
Only the number, expressed in nM, is required.

Q: Which measured Kd value corresponds to SRRPASFRTARE [SRR^*-Cy5.5] ?
A: 68

Values compiled from paper PMC5675618.
